target: AMP-activated protein kinase, AMPK (Homo sapiens) (UniProt P54646+O43741+P54619+Q9UGJ0+Q9Y478+Q13131+Q9UGI9); experiment: AMP-dependent Kinase enzyme assay. An in vitro enzyme assay that detects ADP turnover that is directly proportional to AMPK activity. This uses naive AMPK that is activated during the assay with MK-8722; type: functional; design: scale not given: direction of the effect not stated beside the values; conditions: 30 µM
result.type: Percent Effect (%)
Report as a plain number; the unit % is understood.

Challenge: Please look up its Percent Effect: CC1(C)OC(=O)N(CC(=O)N2CCC(c3ccccc3F)C2)C1=O (stereo unspecified)
Response given: 12.7

Challenge: Name the reported Percent Effect value associated with the compound "CN(CCc1ccccn1)c1cnn(C)c(=O)c1Br"
Response given: -11.5

Challenge: Please give the measured Percent Effect for this compound: "CCCC(=O)Nc1cccc([C@H]2C[C@@H](NC(C)=O)CCO2)c1"
Response given: 13.7

Challenge: Recorded Percent Effect of CNc1ncc(C(=O)N2CCCC(CO)(CCCOC)C2)cn1 (stereo unspecified) , please.
Response given: 5.91

Challenge: Need Percent Effect of "Cc1nc2cc(-c3nccn3C)nn2c(N2CCC(O)CC2)c1C" , thanks.
Response given: 20.2

Challenge: What does the data say about its Percent Effect? Entry: CC(CN1CCOCC1)NC(=O)N1CCCC1 (stereo unspecified)
Response given: 12.9

* * *

Would you kindly list Percent Effect for each of these molecules?
target: Tyrosyl-tRNA synthetase, putative (Trypanosoma cruzi (strain CL Brener)); test: Trypanosoma cruzi tyrosyl tRNA synthetase (TcYRS) _High Tyrosine SOP; format: functional; parameters: scale not given: in the data most compounds retested in dose-response had high values; conditions: 30 µM
Field: numeric (%). Do not append units.

Challenge: Which Percent Effect value is on record for "Cc1ccc(F)cc1S(=O)(=O)NCc1cccnc1N(C)C" ?
Response given: 7.84

Challenge: Could you share which Percent Effect value was measured for "NCc1cn(-c2ccccc2C(=O)NCc2cccc(Cl)c2)cn1" ?
Response given: 3.17

Challenge: # query: Percent Effect of entry CNC(=O)c1ccc(C2CN(C(=O)COC)CCO2)nc1 (stereo unspecified)
Response given: 2.12

Challenge: Consider the molecule "Cn1cc(-c2nc(CNCCn3cccn3)cs2)cn1" and give its measured Percent Effect.
Response given: 8.13

Challenge: Percent Effect lookup needed for "CC(C)N(Cc1cccc(F)c1)Cc1nc2c(cnn2C)c(=O)[nH]1" , thanks.
Response given: 3.35

Challenge: Any idea what Percent Effect was measured for N#Cc1cccc(N2CC3(CCN(C(=O)c4cccnc4)C3)CC2=O)c1 (stereo unspecified) ?
Response given: 3.68

* * *

tested on: Trypanosoma cruzi; assay: Trypanosoma cruzi phosphomannomutase and mannose-1-phosphate guanylyltransferase assay; type: functional; design: scale not given: direction of the effect not stated beside the values; settings: 10 µM
result.type: Percent Effect (%)
Could you give me the number in %? Just the number is fine.

Challenge: For the molecule shown here, "CC[C@H](C)Nc1nccc(-c2cnc3sc(C)c(C)n3c2=O)n1" , give the reported Percent Effect.
Response given: -3.61

Challenge: Reported Percent Effect for Cc1cc(C)n(C2CCCN(C(=O)c3c(C)c(C)n[nH]c3=O)C2)n1 (stereo unspecified) : what is it?
Response given: -4.62

Challenge: Endpoint output: Percent Effect of "COC(=O)c1cccn1C1CCN(Cc2ccccc2)CC1" . Value?
Response given: 2.05

Challenge: Need Percent Effect, item "COc1cccc(CNc2cnn(C)c(=O)c2Cl)c1"
Response given: -1.21

Challenge: Could you tell me which Percent Effect is on file for Cc1cccnc1CNCC1(O)CCCN(Cc2ccc(F)cc2)C1=O (stereo unspecified) ?
Response given: 9.41

Challenge: Data request, read-out Percent Effect, for Cc1ccc(SCC2CNc3nc4ccccc4c(=O)n32)c(C)c1 (stereo unspecified)
Response given: 0.375

Challenge: Query (molecule): CCc1nccn1C1CCCN(C(=O)Cc2ccc(OC)c(F)c2)C1 (stereo unspecified) ; field requested: Percent Effect
Response given: -1.21

Challenge: Request the reported Percent Effect associated with CNC(=O)COc1ccccc1CNC1CCc2ncnn2C1 (stereo unspecified)
Response given: 6.67

Challenge: Sample CNc1cncc(C2CCCN2Cc2c[nH]cn2)n1 (stereo unspecified) — what was its Percent Effect?
Response given: -4.14

Challenge: Look up Percent Effect for this molecule: Cc1nccn1-c1cccc(C2CCCN2S(=O)(=O)c2cn(C)cn2)n1 (stereo unspecified)
Response given: -3.94

Challenge: Consider the molecule shown here: "COc1cc(S(=O)(=O)N2CCc3ccc(F)cc32)cc(C(=O)O)c1OC" What is its recorded Percent Effect?
Response given: -1.21
